Assay: Cytotoxicity against human HMEC1 cells at 30 uM after 3 days by coulter counter method
Format: cell-based
Conditions: hmec-1, 72 h
measurement.kind: Activity

INSERT INTO measurements (compound, measurement_kind, recorded_measurement) VALUES
  ('CCOC(=O)C(=O)N(Cc1ccc(F)cc1)c1ccc2c(c1)OC(C)(COc1ccc(C(=N)N)cc1)CN2C (stereo unspecified)', 'Activity', 'Non-toxic'),
  ('CCOC(=O)C(=O)N(Cc1ccc(F)c(F)c1)c1ccc2c(c1)OC(C)(COc1ccc(C(=N)N)cc1)CN2C (stereo unspecified)', 'Activity', 'Non-toxic'),
  ('CCOC(=O)CN(Cc1cc(F)cc(F)c1)c1ccc2c(c1)N(C)CC(C)(COc1ccc(C(=N)N)cc1)O2 (stereo unspecified)', 'Activity', 'Toxic'),
  ('CCOC(=O)CN(Cc1cc(F)cc(F)c1)c1ccc2c(c1)OC(C)(COc1ccc(C(=N)N)cc1)CN2C (stereo unspecified)', 'Activity', 'Toxic'),
  ('CCOC(=O)C(=O)N(Cc1cc(F)cc(F)c1)c1ccc2c(c1)OC(C)(COc1ccc(C(=N)N)cc1)CN2C (stereo unspecified)', 'Activity', 'Non-toxic'),
  ('CCOC(=O)CN(Cc1ccc(F)c(F)c1)c1ccc2c(c1)OC(C)(COc1ccc(C(=N)N)cc1)CN2C (stereo unspecified)', 'Activity', 'Toxic'),
  ('CCOC(=O)C(=O)N(Cc1cc(F)cc(F)c1)c1ccc2c(c1)N(C)CC(C)(COc1ccc(C(=N)N)cc1)O2 (stereo unspecified)', 'Activity', 'Non-toxic'),
  ('CCOC(=O)C(=O)N(Cc1ccc(F)cc1)c1ccc2c(c1)N(C)CC(C)(COc1ccc(C(=N)N)cc1)O2 (stereo unspecified)', 'Activity', 'Non-toxic'),
  ('CCOC(=O)CN(Cc1ccc(F)c(F)c1)c1ccc2c(c1)N(C)CC(C)(COc1ccc(C(=N)N)cc1)O2 (stereo unspecified)', 'Activity', 'Toxic'),
  ('CCOC(=O)C(=O)N(Cc1ccc(F)c(F)c1)c1ccc2c(c1)N(C)CC(C)(COc1ccc(C(=N)N)cc1)O2 (stereo unspecified)', 'Activity', 'Non-toxic'),
  ('CCOC(=O)CN(Cc1cccc(F)c1)c1ccc2c(c1)N(C)CC(C)(COc1ccc(C(=N)N)cc1)O2 (stereo unspecified)', 'Activity', 'Toxic'),
  ('CCOC(=O)CN(Cc1ccc(F)cc1)c1ccc2c(c1)N(C)CC(C)(COc1ccc(C(=N)N)cc1)O2 (stereo unspecified)', 'Activity', 'Toxic'),
  ('CCOC(=O)C(=O)N(Cc1cccc(F)c1)c1ccc2c(c1)N(C)CC(C)(COc1ccc(C(=N)N)cc1)O2 (stereo unspecified)', 'Activity', 'Non-toxic'),
  ('CCOC(=O)C(=O)N(Cc1cccc(F)c1)c1ccc2c(c1)OC(C)(COc1ccc(C(=N)N)cc1)CN2C (stereo unspecified)', 'Activity', 'Non-toxic'),
  ('CCOC(=O)CN(Cc1cccc(F)c1)c1ccc2c(c1)OC(C)(COc1ccc(C(=N)N)cc1)CN2C (stereo unspecified)', 'Activity', 'Toxic'),
  ('CCOC(=O)CN(Cc1ccc(F)cc1)c1ccc2c(c1)OC(C)(COc1ccc(C(=N)N)cc1)CN2C (stereo unspecified)', 'Activity', 'Toxic');
